Data provenance is paper PMC7139731.

Tested on: HeLa cells (cervical cancer)
ASSAY NOTES: MTT cell viability assay, 72 h, HeLa
Assay type: cell-based, human
SETUP CONDITIONS: MTT assay, 72 h incubation, mean ± SD
MEASURED PARAMETER: pIC50
Schema: pIC50 number; meaning minus log10 of the concentration expressed in molar units.

Field request: pIC50 | item: N#Cc1ccc(/C=C/c2nnc(-c3cc(S(N)(=O)=O)c(SCc4ccccc4)cc3Cl)o2)cc1 [Compound 20]
4.91

---

Please respond with reported pIC50 for every item in the list.
System: HCT-116 cells (colon cancer)
ASSAY NOTES: MTT cell viability assay, 72 h, HCT-116
Type: cell-based, human
SETUP CONDITIONS: Homo sapiens, HCT-116, 72 h, MTT assay, 72 h incubation, mean ± SD
Schema: pIC50 number; meaning minus log10 of the concentration expressed in molar units.

Could you share what pIC50 was measured for N#Cc1ccc(/C=C/c2nnc(-c3ccc(S(N)(=O)=O)cc3)o2)cc1 , tested on HCT-116 cells (colon cancer)?
4.49

Could you share what pIC50 was measured for NS(=O)(=O)c1cc(-c2nnc(/C=C/c3ccccn3)o2)c(Cl)cc1SCc1ccccc1 , tested on HCT-116 cells (colon cancer)?
4.60

Could you share what pIC50 was measured for NS(=O)(=O)c1cc(-c2nnc(/C=C/c3cccs3)o2)c(Cl)cc1SCc1ccccc1 , tested on HCT-116 cells (colon cancer)?
4.49

Could you share what pIC50 was measured for N#Cc1ccc(/C=C/c2nnc(-c3ccc(Cl)cc3Cl)o2)cc1 , tested on HCT-116 cells (colon cancer)?
3.97

Could you share what pIC50 was measured for NS(=O)(=O)c1cc(-c2nnc(/C=C/c3ccccn3)o2)c(Cl)cc1Cl , tested on HCT-116 cells (colon cancer)?
3.93

Could you share what pIC50 was measured for NS(=O)(=O)c1cc(-c2nnc(/C=C/c3cccc(Cl)c3)o2)c(Cl)cc1Cl , tested on HCT-116 cells (colon cancer)?
4.62

Could you share what pIC50 was measured for NS(=O)(=O)c1cc(-c2nnc(/C=C/c3ccc([N+](=O)[O-])s3)o2)c(Cl)cc1SCc1ccccc1 , tested on HCT-116 cells (colon cancer)?
4.77

Could you share what pIC50 was measured for NS(=O)(=O)c1ccc(-c2nnc(/C=C/c3ccccc3)o2)cc1 , tested on HCT-116 cells (colon cancer)?
3.73

---

System: HCT-116 cells (colon cancer)
ASSAY NOTES: MTT cell viability assay, 72 h, HCT-116
Assay type: cell-based, human
SETUP CONDITIONS: Homo sapiens, HCT-116, 72 h, MTT assay, 72 h incubation, mean ± SD
pIC50: −log10 of the molar value.
Please note: condition met applies when pIC50 is 4 or greater, and condition not met applies otherwise.

Form field: pIC50 at least 4? Entry: NS(=O)(=O)c1ccc(-c2nnc(/C=C/c3ccc(C(F)(F)F)cc3)o2)cc1 [Compound 50]
condition not met

Form field: pIC50 at least 4? Entry: NS(=O)(=O)c1cc(-c2nnc(/C=C/c3ccc[nH]3)o2)c(Cl)cc1Cl [Compound 36]
condition met

Form field: pIC50 at least 4? Entry: NS(=O)(=O)c1cc(-c2nnc(/C=C/c3ccncc3)o2)c(Cl)cc1SCc1ccccc1 [Compound 24]
condition met

Form field: pIC50 at least 4? Entry: NS(=O)(=O)c1cc(-c2nnc(/C=C/c3ccc(O)cc3)o2)c(Cl)cc1Cl [Compound 17]
condition met

Form field: pIC50 at least 4? Entry: Clc1ccc(/C=C/c2nnc(-c3ccc(Cl)cc3Cl)o2)cc1 [Compound 52]
condition met

Form field: pIC50 at least 4? Entry: NS(=O)(=O)c1cc(-c2nnc(/C=C/c3ccncc3)o2)c(Cl)cc1Cl [Compound 23]
condition not met

Form field: pIC50 at least 4? Entry: N#Cc1ccc(/C=C/c2nnc(-c3cc(S(N)(=O)=O)c(Cl)cc3Cl)o2)cc1 [Compound 19]
condition met

Form field: pIC50 at least 4? Entry: NS(=O)(=O)c1cc(-c2nnc(/C=C/c3cccnc3)o2)c(Cl)cc1Cl [Compound 25]
condition not met

Form field: pIC50 at least 4? Entry: NS(=O)(=O)c1cc(-c2nnc(/C=C/c3ccc(Br)cc3)o2)c(Cl)cc1Cl [Compound 15]
condition met

Form field: pIC50 at least 4? Entry: NS(=O)(=O)c1cc(-c2nnc(/C=C/c3ccco3)o2)c(Cl)cc1Cl [Compound 33]
condition met

Form field: pIC50 at least 4? Entry: NS(=O)(=O)c1cc(-c2nnc(/C=C/c3ccc(C(F)(F)F)cc3)o2)c(Cl)cc1SCc1ccccc1 [Compound 22]
condition met

Form field: pIC50 at least 4? Entry: NS(=O)(=O)c1cc(-c2nnc(/C=C/c3ccc(O)cc3)o2)c(Cl)cc1SCc1ccccc1 [Compound 18]
condition met

Form field: pIC50 at least 4? Entry: NS(=O)(=O)c1cc(-c2nnc(/C=C/c3c(Cl)cccc3Cl)o2)c(Cl)cc1Cl [Compound 13]
condition met

Form field: pIC50 at least 4? Entry: NS(=O)(=O)c1cc(-c2nnc(/C=C/c3ccc(C(F)(F)F)cc3)o2)c(Cl)cc1Cl [Compound 21]
condition met

Form field: pIC50 at least 4? Entry: NS(=O)(=O)c1cc(-c2nnc(/C=C/c3ccco3)o2)c(Cl)cc1SCc1ccccc1 [Compound 34]
condition met

Form field: pIC50 at least 4? Entry: NS(=O)(=O)c1cc(-c2nnc(/C=C/c3ccc([N+](=O)[O-])o3)o2)c(Cl)cc1SCc1ccccc1 [Compound 35]
condition met

Form field: pIC50 at least 4? Entry: NS(=O)(=O)c1cc(-c2nnc(/C=C/c3ccc(Cl)cc3)o2)c(Cl)cc1Cl [Compound 11]
condition met

---

System: HCT-116 cells (colon cancer)
ASSAY NOTES: MTT cell viability assay, 72 h, HCT-116
Assay type: cell-based, human
SETUP CONDITIONS: Homo sapiens, HCT-116, 72 h, MTT assay, 72 h incubation, mean ± SD
Method: Compounds 7–36 and 47–54 were tested regarding their effect on growth of three human cancer cell lines: colon cancer HCT-116, breast cancer MCF-7 and cervical cancer HeLa, as well as on noncancerous keratinocyte cell line HaCaT. Cell viability was measured with MTT assay after 72 h of incubation with tested compound in five concentration 1–100 μM. […]
Please respond with reported pIC50 for every item in the list.
Schema: pIC50 number; meaning minus log10 of the concentration expressed in molar units.

Field request: pIC50 | item: NS(=O)(=O)c1cc(-c2nnc(/C=C/c3cccs3)o2)c(Cl)cc1Cl
3.97

Field request: pIC50 | item: Clc1ccc(-c2nnc(/C=C/c3ccccc3)o2)c(Cl)c1
4.04

Field request: pIC50 | item: NS(=O)(=O)c1cc(-c2nnc(/C=C/c3ccccc3)o2)c(Cl)cc1Cl
4.07

Field request: pIC50 | item: FC(F)(F)c1ccc(/C=C/c2nnc(-c3ccc(Cl)cc3Cl)o2)cc1
4.01

Field request: pIC50 | item: NS(=O)(=O)c1cc(-c2nnc(/C=C/c3cccnc3)o2)c(Cl)cc1SCc1ccccc1
4.07

Field request: pIC50 | item: NS(=O)(=O)c1ccc(-c2nnc(/C=C/c3ccc(Cl)cc3)o2)cc1
3.98
